Test system: SF-268
Experiment: NCI tumour cell line growth inhibition, 48 h
Active and inactive are the calls of the source. Cut-off read from the data, not from the text of the source: active = GI50 up to about 1.1 µM and inactive = higher.

{"columns": ["MOLECULE", "GI50"],
 "data": [
  ["O=C1C(Cl)=C(Cl)C(=O)N1C1C2CC3CC(C2)CC1C3 (stereo not given)", "> 100 µM (inactive)"],
  ["CCCCCCCCCCC/C=C(/C(=O)CCCO[Si](C)(C)C(C)(C)C)C(=O)OC", "> 100 µM (inactive)"],
  ["CC1=C(O)C(=O)c2cn(C)cc2C1=O", "> 100 µM (inactive)"],
  ["O=[N+]([O-])c1cccc2nccc(NCCN3CCOCC3)c12", "20.5 µM (inactive)"],
  ["COC(=O)/C(C=O)=C/Sc1ccccc1", "11 µM (inactive)"],
  ["COc1cc([C@@H]2c3cc4c(cc3[C@@H](Nc3ccc(C(=O)N[C@H]5CCc6cc(OC)c(OC)c(OC)c6-c6ccc(SC)c(=O)cc65)cc3)[C@H]3COC(=O)[C@H]23)OCO4)cc(OC)c1O", "11.7 µM (inactive)"],
  ["Cc1ccc(C)c(/C(=N\\N=C(N)N)C2CC2)c1", "39.5 µM (inactive)"],
  ["O=C(Cn1c(-c2ccccc2)cc2ccccc21)N1CCOCC1", "34.4 µM (inactive)"],
  ["CCN(CC)C(=S)N/N=C1\\C(=O)Nc2ccccc21", "> 100 µM (inactive)"],
  ["CCOC(=O)NC(NC1=NCCS1)(C(=O)OCC)C(F)(F)F (stereo not given)", "> 100 µM (inactive)"]
]}

----------
Test system: TK-10
Test: NCI tumour cell line growth inhibition, 48 h
Calls of active or inactive are those of the source. No stated cut-off is given here; in the data, active = GI50 up to about 1.1 µM and inactive = higher.
// values below are reported GI50

{"columns": ["COMPOUND", "GI50"],
 "data": [
  ["COc1c2c(nc3ccccc13)-c1cc(C(CC(=O)OC(C)(C)C)C(=O)OC(C)C)c(CO)c(=O)n1C2 (stereo unspecified)", "> 100 µM (inactive)"],
  ["CC1=NOC(=O)/C1=C/c1ccc([N+](=O)[O-])cc1", "> 100 µM (inactive)"],
  ["O=c1cc(-c2ccc(Cl)cc2)oc2cc(OCCCOc3ccc4c(=O)cc(-c5ccc(Cl)cc5)oc4c3)ccc12", "> 100 µM (inactive)"],
  ["COc1cc([C@@H]2c3cc4c(cc3[C@@H](Nc3ccc(C(=O)N[C@H]5CCc6cc(OC)c(OC)c(OC)c6-c6ccc(SC)c(=O)cc65)cc3)[C@H]3COC(=O)[C@H]23)OCO4)cc(OC)c1O", "15.2 µM (inactive)"],
  ["COC(=O)c1ccc2cc(O)c(O)cc2c1", "27.9 µM (inactive)"],
  ["COc1ccc(Nc2nc3ccccc3n3cccc23)cc1OC", "16.5 µM (inactive)"],
  ["O=c1ccc(=O)c2c(=O)c3ccccc3c(=O)c1=2", "> 100 µM (inactive)"],
  ["C[C@]12CC[C@H](O)CC1=CC[C@@H]1[C@@H]2CC[C@]2(C)C(=O)[C@@H](N3CCOCC3)C[C@@H]12", "> 100 µM (inactive)"],
  ["O=C1c2ccccc2C(=O)c2nc3c(O)cccc3cc21", "74.5 µM (inactive)"],
  ["CN(C)CCCNC(=O)c1c(O)c2ccccc2n(C)c1=O", "67.3 µM (inactive)"],
  ["Cc1nn(C(=O)Cc2ccccc2)c2c1C(c1ccc([N+](=O)[O-])cc1)SC(=N)N2 (stereo unspecified)", "> 100 µM (inactive)"]
]}
